Counter-ions that a name gives are not always drawn.
observable: melting point

Request: For O=S(=O)(c1ccc(-c2ccc(Br)cc2)cc1)N(c1ccc(OCC2CCN(c3ccncc3)CC2)cc1)S(=O)(=O)c1ccc(-c2ccc(Br)cc2)cc1 [Example 14] , what is its reported melting point?
Result: 136 to 140 °C

Request: For O=C(c1ccc(Sc2ccc3cc(Br)ccc3c2)cc1)N1CCN(c2ccncc2)CC1 [Example 27] , what is its reported melting point?
Result: 210 to 213 °C

Request: For O=S(=O)(Nc1ccccc1OCC1CCN(c2ccncc2)CC1)c1ccc2cc(Br)ccc2c1 [Example 20] , what is its reported melting point?
Result: 197 to 200 °C

Please state melting point for every molecule in the list that follows.
1. O=S(=O)(/C=C/c1ccc(Cl)cc1)Nc1ccc(OCC2CCN(c3ccncc3)CC2)cc1 (as salt: hydrochloride) [Example 13]
2. Cc1ccc(S(=O)(=O)Nc2ccc(OC3CCN(c4ccncc4)CC3)cc2)cc1 (as salt: hydrochloride) [Example 7]
3. O=S(=O)(Nc1cccc(OC2CCN(c3ccncc3)CC2)c1)c1ccc2cc(Br)ccc2c1 (as salt: hydrochloride) [Example 16]
4. O=S(=O)(Nc1ccc(OC2CCN(c3ccncc3)CC2)cc1)c1ccc(-c2ccc(Br)cc2)cc1 (as salt: hydrochloride) [Example 4]
5. O=S(=O)(/C=C/c1ccc(Cl)cc1)Nc1cccc(OC2CCN(c3ccncc3)CC2)c1 (as salt: hydrochloride) [Example 21]
6. O=S(=O)(Nc1ccc(OCC2CCN(c3ccncc3)CC2)cc1)c1ccc2cc(Br)ccc2c1 (as salt: hydrochloride) [Example 12]
7. O=C(c1ccc(S(=O)(=O)c2ccc3cc(Cl)ccc3c2)cc1)N1CCN(c2ccncc2)CC1 [Example 1]
8. O=S(=O)(c1ccc2cc(Br)ccc2c1)N(c1ccc(OCC2CCN(c3ccncc3)CC2)cc1)S(=O)(=O)c1ccc2cc(Br)ccc2c1 [Example 15]

Result:
1. 220 to 223 °C
2. 270 to 272 °C
3. 298 to 300 °C
4. 302 to 304 °C
5. 147 to 150 °C
6. 167 to 169 °C
7. 267 to 269 °C
8. 246 to 252 °C

Please state melting point for every molecule in the list that follows.
1. O=S(=O)(c1ccc(S(=O)(=O)N2CCN(c3ccncc3)CC2)cc1)c1ccc2cc(Br)ccc2c1 (as salt: trifluoroacetate) [Example 25]
2. O=S(=O)(c1ccc(OC2CCN(c3ccncc3)CC2)cc1)c1ccc2cc(Br)ccc2c1 [Example 22]
3. Cc1ccc(S(=O)(=O)N(c2ccc(OC3CCN(c4ccncc4)CC3)cc2)S(=O)(=O)c2ccc(C)cc2)cc1 [Example 8]
4. O=S(=O)(Nc1ccc(OCC2CCN(c3ccncc3)CC2)cc1)c1ccc(-c2ccc(Br)cc2)cc1 (as salt: hydrochloride) [Example 11]

Result:
["236 to 238 °C", "180 to 183 °C", "196 to 198 °C", "293 to 295 °C"]

// data source = patent US7173025B1
